# Test system: SK-MEL-28 melanoma
# ASSAY_NAME: NCI-60 one-dose screen, 48 h (100 = growth as untreated, 0 = no growth, -100 = all killed)
# CONDITION_SUMMARY: 10 µM unless noted
# Procedure: Growth inhibition of the SK-MEL-28 human tumor cell line is measured as a screen for anti-cancer activity. Cells are grown in 96 well plates and exposed to the test compound for 48 hours. Compounds are tested at a single concentration, which is 10^-5 M for most compounds. The reported endpoint is percent growth (GI% or GIPRCNT), where numbers from 0 - 100% represent growth inhibition, and numbers from -100% - 0 represent cell death. For example, a value of 40 represents 60% growth inhibition. […]
Compounds without any hit were thinned out: in the full panel of roughly 83,000, 20% have a hit.

COMPOUND	ASSAY_TARGET	growth [%]
Cc1c(N(C)CS(=O)(=O)O)c(=O)n(-c2ccccc2)n1C	SK-MEL-28 melanoma	108
CCOc1cc(-c2ccc[nH]2)[nH]c1/C=C1\N=C(C)C(C(=O)OC)=C1C	SK-MEL-28 melanoma	-83.5
O=C(Nc1ccncc1)C(=O)c1cn(S(=O)(=O)c2cccc(F)c2)c2ccccc12	SK-MEL-28 melanoma	55.5
C/C(=C\CCc1ccoc1)CC/C=C(\C)CCCN1CCC(CO)CC1	SK-MEL-28 melanoma	56.3
C[n+]1c2ccccc2c(Nc2ccc(N3CCCCC3)cc2)c2[nH]c3ccccc3c21	SK-MEL-28 melanoma	-98.9
CC(=O)NCCSC(=O)C(=O)SCCNC(C)=O	SK-MEL-28 melanoma	118
COc1cccc(CCC2C(=O)CCCC2=O)c1	SK-MEL-28 melanoma	119
CCCCOc1ccc(C(C)(C)c2ccc(OCCCC)cc2)cc1	SK-MEL-28 melanoma	107
Cn1cc(-c2csc(-c3c[nH]c4ncccc34)n2)c2cc(Br)cnc21	SK-MEL-28 melanoma	27.7
Cn1cc(-c2nc(-c3c[nH]c4ncccc34)cs2)c2cccnc21	SK-MEL-28 melanoma	90.6
O=C(CSc1nnc(Nc2ccccc2)s1)NCCc1ccc(F)cc1	SK-MEL-28 melanoma	134
Cn1c(N)c(N=O)c(=O)[nH]c1=O	SK-MEL-28 melanoma	108
Cn1c(=O)c2c(nc(Br)n2CCC(=O)Nc2ccc(F)cc2)n(C)c1=O	SK-MEL-28 melanoma	112
ClC1=C(Cl)C(Cl)=C(Cl)C1=C/C=C/c1ccccc1	SK-MEL-28 melanoma	-74.1
CCC(C)CC(C)C(=O)c1c(O)ccn(OC)c1=O (stereo not given)	SK-MEL-28 melanoma	77.6
